These data points were gathered from patent US20260083865A1.

- system-tested: Fc-fusion protein of human PSMA (hPSMA-Fc) (Homo sapiens)
- Construct: purchased Acro Biosystems PSA-H5264
- test-details: Surface plasmon resonance assay (Biacore T200, single cycle kinetic)
- Type: binding
- assay-conditions: pKD category for PSMA SPR activity assay, hPSMA-Fc, 25° C.; read-out: pKD CAT (converted)
Numbered stars: 1 amine (or outer) side, 2 acyl side, 3 side chain; on linkers, the order of the positions; unused ones are H or OH. Bridge positions count the residues as written; N and C are the ends. Square brackets hold non-standard residues; d marks the D form. Peptide text beside a SMILES is read from it. * marks the point of attachment. DOTA = O=C(O)CN1CCN(CC(=O)O)CCN(CC(=O)*)CCN(CC(=O)O)CC1; Phe(4-Cl) = N[C@@H](Cc1ccc(Cl)cc1)C(=O)O; Pro(4R-NH2) = N[C@H]1CN[C@H](C(=O)O)C1; Ethylenediamine = C(CN[*:2])N[*:1]; X1 = O=C(CC1CCN([*:1])CC1)[*:2]; Tle = CC(C)(C)[C@H](N)C(=O)O; Aib = CC(C)(N)C(=O)O; βAla = NCCC(=O)O
Kd listing for selected compounds.

# compound, system-tested, Kd
data = [
    ("CC(=O)NCCCC[C@@H]1NC(=O)[C@@H](NC(=O)[C@H](Cc2ccc(Cl)cc2)NC(=O)C(C)(C)NC(=O)[C@@H](NC(=O)CC2CCN(C(=O)CN3CCN(CC(=O)O)CCN(CC(=O)O)CCN(CC(=O)O)CC3)CC2)[C@@H](C)O)CSSC[C@@H](C(=O)N[C@H](C(=O)N[C@H](C(N)=O)[C@@H](C)O)C(C)(C)C)NC(=O)[C@H](CC(N)=O)NC(=O)C(C)(C)NC(=O)[C@H](CCCNC(=N)N)NC1=O [PSM-0466] ({DOTA}-[X1]T[Aib][Phe(4-Cl)]CK(Ac)R[Aib]NC[Tle]T-NH2; disulfide 5-10)", "Fc-fusion protein of human PSMA (hPSMA-Fc) (Homo sapiens)", "< 12.6 nM"),
    ("C[C@@H](O)[C@H](NC(=O)[C@@H](NC(=O)[C@@H]1CSSC[C@H](NC(=O)[C@H](Cc2ccccc2)NC(=O)C(C)(C)NC(=O)CCNC(=O)CN2CCN(CC(=O)O)CCN(CC(=O)O)CCN(CC(=O)O)CC2)C(=O)N[C@@H](CCCCN)C(=O)N[C@@H](CCCNC(=N)N)C(=O)NC(C)(C)C(=O)N[C@@H](CC(N)=O)C(=O)N1)C(C)(C)C)C(N)=O [PSM-0437] ({DOTA-βAla}-[Aib]FCKR[Aib]NC[Tle]T-NH2; disulfide 3-8)", "Fc-fusion protein of human PSMA (hPSMA-Fc) (Homo sapiens)", "12.6 to 126 nM"),
    ("CC(=O)N[C@H](C(=O)NC(C)(C)C(=O)N[C@@H](Cc1ccccc1)C(=O)N[C@H]1CSSC[C@@H](C(=O)N[C@H](C(=O)N[C@H](C(=O)N[C@@H](CC(=O)O)C(N)=O)[C@@H](C)O)C(C)(C)C)NC(=O)[C@H](CC(N)=O)NC(=O)[C@H](C)NC(=O)[C@H](CCCNC(=N)N)NC(=O)[C@@H]2C[C@@H](N)CN2C1=O)[C@@H](C)O [PSM-0422] (Ac-T[Aib]FC[Pro(4R-NH2)]RANC[Tle]TD-NH2; disulfide 4-9)", "Fc-fusion protein of human PSMA (hPSMA-Fc) (Homo sapiens)", "126 to 501 nM"),
    ("C[C@@H](O)[C@H](NC(=O)CC1CCN(C(=O)CN2CCN(CC(=O)O)CCN(CC(=O)O)CCN(CC(=O)O)CC2)CC1)C(=O)NC(C)(C)C(=O)N[C@@H](Cc1ccc(Cl)cc1)C(=O)N[C@H]1CSSC[C@@H](C(=O)N[C@H](C(=O)NCCN)C(C)(C)C)NC(=O)[C@H](CC(N)=O)NC(=O)C(C)(C)NC(=O)[C@H](CCCNC(=N)N)NC(=O)[C@H](CCCCN)NC1=O [PSM-0384] ({DOTA}-[X1]T[Aib][Phe(4-Cl)]CKR[Aib]NC[Tle]-Ethylenediamine; disulfide 5-10)", "Fc-fusion protein of human PSMA (hPSMA-Fc) (Homo sapiens)", "< 12.6 nM"),
    ("CC(=O)N[C@H](C(=O)NC(C)(C)C(=O)N[C@@H](Cc1ccccc1)C(=O)N[C@H]1CSSC[C@@H](C(=O)N[C@H](C(=O)N[C@H](C(N)=O)[C@@H](C)O)C(C)(C)C)NC(=O)CNC(=O)C(C)(C)NC(=O)[C@H](CCCNC(=N)N)NC(=O)[C@H](CCCCN)NC1=O)[C@@H](C)O [PSM-0479] (Ac-T[Aib]FCKR[Aib]GC[Tle]T-NH2; disulfide 4-9)", "Fc-fusion protein of human PSMA (hPSMA-Fc) (Homo sapiens)", "< 12.6 nM"),
]

====

- system-tested: PSMA-expressing C4-2 cells (Homo sapiens)
- Construct: PSMA-expressing C4-2 cells (ATCC, Cat. No. CRL-3314) were cultured in RPMI-1640; host or cells: C4-2 cells
- Sequence (Q04609 whole entry): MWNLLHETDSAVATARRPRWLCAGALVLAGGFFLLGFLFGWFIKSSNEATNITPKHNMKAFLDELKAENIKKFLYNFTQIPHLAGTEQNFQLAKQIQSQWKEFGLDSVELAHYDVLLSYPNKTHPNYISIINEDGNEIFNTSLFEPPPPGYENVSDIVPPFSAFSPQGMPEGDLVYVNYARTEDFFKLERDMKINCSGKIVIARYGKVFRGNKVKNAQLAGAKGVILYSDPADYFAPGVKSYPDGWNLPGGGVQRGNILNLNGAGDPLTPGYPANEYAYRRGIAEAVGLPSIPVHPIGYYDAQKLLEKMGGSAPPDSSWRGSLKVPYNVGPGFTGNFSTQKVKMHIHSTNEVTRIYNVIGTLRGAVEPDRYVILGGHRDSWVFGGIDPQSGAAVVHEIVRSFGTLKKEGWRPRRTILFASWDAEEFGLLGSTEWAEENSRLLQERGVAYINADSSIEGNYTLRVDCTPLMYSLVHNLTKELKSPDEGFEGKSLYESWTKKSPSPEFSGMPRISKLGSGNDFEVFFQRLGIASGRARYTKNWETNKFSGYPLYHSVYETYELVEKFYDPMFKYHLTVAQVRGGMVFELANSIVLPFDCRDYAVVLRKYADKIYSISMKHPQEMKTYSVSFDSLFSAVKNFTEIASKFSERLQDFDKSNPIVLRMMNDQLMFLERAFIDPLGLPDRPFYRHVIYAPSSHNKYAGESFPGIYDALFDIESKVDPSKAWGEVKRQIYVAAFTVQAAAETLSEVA
- test-details: FACS binding assay (competition with 50 nM PSM-0183)
- assay-conditions: FACS binding, PSMA-expressing C4-2 cells; pIC50 category; read-out: pIC50 [C4-2] CAT (converted)
Numbered stars: 1 amine (or outer) side, 2 acyl side, 3 side chain; on linkers, the order of the positions; unused ones are H or OH. Bridge positions count the residues as written; N and C are the ends. Square brackets hold non-standard residues; d marks the D form. Side chains are listed from the residue outwards. Peptide text beside a SMILES is read from it. * marks the point of attachment. DOTA = O=C(O)CN1CCN(CC(=O)O)CCN(CC(=O)*)CCN(CC(=O)O)CC1; Ala(quinolin-3-yl) = N[C@@H](Cc1cnc2ccccc2c1)C(=O)O; Phe(3-Cl) = N[C@@H](Cc1cccc(Cl)c1)C(=O)O; Arg(Me) = CNC(=N)NCCC[C@H](N)C(=O)O; X1 = O=C(CC1CCN([*:1])CC1)[*:2]; Cit = NC(=O)NCCC[C@H](N)C(=O)O; Lys(Me) = CNCCCC[C@H](N)C(=O)O; Tle = CC(C)(C)[C@H](N)C(=O)O; AEEA = NCCOCCOCC(=O)O; Aib = CC(C)(N)C(=O)O

# molecule, IC50
rows = [
    ("CC(=O)N[C@H](C(=O)NC(C)(C)C(=O)N[C@@H](Cc1ccccc1)C(=O)N[C@H]1CSSC[C@@H](C(=O)N[C@H](C(=O)N[C@H](C(=O)N[C@H](CCCCNC(=O)CN2CCN(CC(=O)O)CCN(CC(=O)O)CCN(CC(=O)O)CC2)C(N)=O)[C@@H](C)O)C(C)(C)C)NC(=O)[C@H](CC(N)=O)NC(=O)C(C)(C)NC(=O)[C@H](CCCNC(=N)N)NC(=O)[C@H](CCCCN)NC1=O)[C@@H](C)O [PSM-0288] (Ac-T[Aib]FCKR[Aib]NC[Tle]T[dK](DOTA)-NH2; disulfide 4-9)", "< 0.2 µM"),
    ("CC(=O)N[C@H](C(=O)NC(C)(C)C(=O)N[C@@H](Cc1ccccc1)C(=O)N[C@@H]1CSSC[C@H](C(=O)N[C@H](C(=O)N[C@H](C(N)=O)[C@@H](C)O)C(C)(C)C)NC(=O)[C@H](CC(N)=O)NC(=O)C(C)(C)NC(=O)[C@H](CCCNC(=N)N)NC(=O)[C@H](CCCCN)NC1=O)[C@@H](C)O [PSM-0327] (Ac-T[Aib]F[dC]KR[Aib]N[dC][Tle]T-NH2; disulfide 4-9)", "> 3.16 µM"),
    ("CC(=O)N[C@H](C(=O)NC(C)(C)C(=O)N[C@@H](Cc1ccccc1)C(=O)N[C@@H]1CSSC[C@@H](C(=O)N[C@H](C(=O)N[C@H](C(N)=O)[C@@H](C)O)C(C)(C)C)NC(=O)[C@H](CC(N)=O)NC(=O)C(C)(C)NC(=O)[C@H](CCCNC(=N)N)NC(=O)[C@H](CCCCN)NC1=O)[C@@H](C)O [PSM-0348] (Ac-T[Aib]F[dC]KR[Aib]NC[Tle]T-NH2; disulfide 4-9)", "> 3.16 µM"),
    ("CC(=O)N[C@H](C(=O)NC(C)(C)C(=O)N[C@@H](Cc1cccc(Cl)c1)C(=O)N[C@H]1CSSC[C@@H](C(=O)N[C@H](C(=O)N[C@H](C(N)=O)[C@@H](C)O)C(C)(C)C)NC(=O)[C@H](CC(N)=O)NC(=O)[C@H](CCCCNC(=O)COCCOCCNC(=O)CN2CCN(CC(=O)O)CCN(CC(=O)O)CCN(CC(=O)O)CC2)NC(=O)[C@H](CCCNC(N)=O)NC(=O)[C@H](CCCCN)NC1=O)[C@@H](C)O [PSM-0284] (Ac-T[Aib][Phe(3-Cl)]CK[Cit]K([AEEA-DOTA])NC[Tle]T-NH2; disulfide 4-9)", "< 0.2 µM"),
    ("CNCCCC[C@@H]1NC(=O)[C@@H](NC(=O)[C@H](Cc2cnc3ccccc3c2)NC(=O)C(C)(C)NC(=O)[C@@H](NC(=O)CC2CCN(C(=O)CN3CCN(CC(=O)O)CCN(CC(=O)O)CCN(CC(=O)O)CC3)CC2)[C@@H](C)O)CSSC[C@@H](C(=O)N[C@H](C(=O)N[C@H](C(N)=O)[C@@H](C)O)C(C)(C)C)NC(=O)[C@H](CC(N)=O)NC(=O)C(C)(C)NC(=O)[C@H](CCCNC(=N)NC)NC1=O [PSM-0337] ({DOTA}-[X1]T[Aib][Ala(quinolin-3-yl)]C[Lys(Me)][Arg(Me)][Aib]NC[Tle]T-NH2; disulfide 5-10)", "1.26 to 3.16 µM"),
]
